Target Entity: chimeric Caspase-9 polypeptide
Sequence (P62942 2-108 F37V limits assumed): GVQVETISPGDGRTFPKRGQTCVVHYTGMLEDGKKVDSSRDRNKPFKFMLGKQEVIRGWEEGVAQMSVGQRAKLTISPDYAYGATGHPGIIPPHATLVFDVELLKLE
Protocol Details: Caspase-9 mutant classes and basal activity (Table 5)
Format: cell-based
Condition Description: Caspase-9 mutant class; ligand IC50 compared with unmodified chimeric Caspase-9

Molecule	IC50
N405Q-S144A (protein) GFGDVGALEALRGNADLAYILSMEPCGHCLIINNVNFCRESGLRTRTGSNIDCEKLRRRFSSLHFMVEVKGDLTAKKMVLALLELARQDHGALDCCVVVILSHGCQASHLQFPGAVYGTDGCPVSVEKIVNIFNGTSCPSLGGKPKLFFIQACGGEQKDHGFEVASTSPEDESPGSNPEPDATPFQEGLRTFDQLDAISSLPTPSDIFVSYSTFPGFVSWRDPKSGSWYVETLDDIFEQWAHSEDLQSLLLRVANAVSVKGIYKQMPGCFQFLRKKLFFKTSASRA	higher IC50
D330G (protein) GFGDVGALESLRGNADLAYILSMEPCGHCLIINNVNFCRESGLRTRTGSNIDCEKLRRRFSSLHFMVEVKGDLTAKKMVLALLELARQDHGALDCCVVVILSHGCQASHLQFPGAVYGTDGCPVSVEKIVNIFNGTSCPSLGGKPKLFFIQACGGEQKDHGFEVASTSPEDESPGSNPEPDATPFQEGLRTFDQLGAISSLPTPSDIFVSYSTFPGFVSWRDPKSGSWYVETLDDIFEQWAHSEDLQSLLLRVANAVSVKGIYKQMPGCFNFLRKKLFFKTSASRA	higher IC50
